Each record here notes measured MIC.
# target.of.assay: Methionine--tRNA ligase (Enterococcus faecalis (strain ATCC 700802 / V583)) (UniProt Q837B3)
# Sequence (Q837B3 whole entry): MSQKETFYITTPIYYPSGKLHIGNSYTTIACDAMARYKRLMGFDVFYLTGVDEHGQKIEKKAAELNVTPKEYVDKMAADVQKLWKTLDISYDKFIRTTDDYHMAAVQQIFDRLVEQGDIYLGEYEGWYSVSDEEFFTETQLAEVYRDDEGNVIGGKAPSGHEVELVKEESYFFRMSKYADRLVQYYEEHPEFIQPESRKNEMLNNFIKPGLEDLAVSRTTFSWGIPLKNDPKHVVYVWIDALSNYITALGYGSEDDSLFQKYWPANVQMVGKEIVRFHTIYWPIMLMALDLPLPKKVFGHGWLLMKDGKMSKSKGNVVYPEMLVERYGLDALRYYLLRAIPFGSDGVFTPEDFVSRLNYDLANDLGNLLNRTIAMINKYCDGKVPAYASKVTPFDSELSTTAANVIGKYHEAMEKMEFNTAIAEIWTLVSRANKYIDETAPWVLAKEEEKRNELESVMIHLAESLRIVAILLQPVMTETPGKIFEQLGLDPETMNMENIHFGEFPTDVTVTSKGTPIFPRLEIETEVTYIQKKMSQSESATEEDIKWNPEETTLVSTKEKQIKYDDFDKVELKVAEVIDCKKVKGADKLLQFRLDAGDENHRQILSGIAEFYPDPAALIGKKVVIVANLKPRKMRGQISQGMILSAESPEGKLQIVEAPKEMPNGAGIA
# protocol.description: In vitro Antibacterial activity of compound against Enterococcus faecalis 7
# Type: functional

[
  {
    "smiles.code": "Oc1cc(NCCCNCc2cc(Cl)cc(Cl)c2Cl)nc2ccccc12",
    "result.modifier": "<",
    "MIC, µg/mL": 0.06
  },
  {
    "smiles.code": "Oc1cc(NCCCNCc2cccc(Cl)c2Cl)nc2ccccc12",
    "result.modifier": "=",
    "MIC, µg/mL": 2
  },
  {
    "smiles.code": "Oc1cc(NCCCNCc2ccc(Cl)cc2Cl)nc2ccccc12",
    "result.modifier": "=",
    "MIC, µg/mL": 4
  },
  {
    "smiles.code": "CC(C)Oc1c(Cl)cc(Cl)cc1CNCCCNc1cc(O)c2ccccc2n1",
    "result.modifier": "=",
    "MIC, µg/mL": 0.5
  }
]

Reference for the values: ChEMBL document CHEMBL1136587
